Just for reference, ChEMBL document CHEMBL3991601 is where these values come from.

molecular target: BMP-2-inducible protein kinase (Homo sapiens, UniProt Q9NSY1); also: in the data inactive means no Kd found up to 30 µM
Sequence (Q9NSY1 whole entry): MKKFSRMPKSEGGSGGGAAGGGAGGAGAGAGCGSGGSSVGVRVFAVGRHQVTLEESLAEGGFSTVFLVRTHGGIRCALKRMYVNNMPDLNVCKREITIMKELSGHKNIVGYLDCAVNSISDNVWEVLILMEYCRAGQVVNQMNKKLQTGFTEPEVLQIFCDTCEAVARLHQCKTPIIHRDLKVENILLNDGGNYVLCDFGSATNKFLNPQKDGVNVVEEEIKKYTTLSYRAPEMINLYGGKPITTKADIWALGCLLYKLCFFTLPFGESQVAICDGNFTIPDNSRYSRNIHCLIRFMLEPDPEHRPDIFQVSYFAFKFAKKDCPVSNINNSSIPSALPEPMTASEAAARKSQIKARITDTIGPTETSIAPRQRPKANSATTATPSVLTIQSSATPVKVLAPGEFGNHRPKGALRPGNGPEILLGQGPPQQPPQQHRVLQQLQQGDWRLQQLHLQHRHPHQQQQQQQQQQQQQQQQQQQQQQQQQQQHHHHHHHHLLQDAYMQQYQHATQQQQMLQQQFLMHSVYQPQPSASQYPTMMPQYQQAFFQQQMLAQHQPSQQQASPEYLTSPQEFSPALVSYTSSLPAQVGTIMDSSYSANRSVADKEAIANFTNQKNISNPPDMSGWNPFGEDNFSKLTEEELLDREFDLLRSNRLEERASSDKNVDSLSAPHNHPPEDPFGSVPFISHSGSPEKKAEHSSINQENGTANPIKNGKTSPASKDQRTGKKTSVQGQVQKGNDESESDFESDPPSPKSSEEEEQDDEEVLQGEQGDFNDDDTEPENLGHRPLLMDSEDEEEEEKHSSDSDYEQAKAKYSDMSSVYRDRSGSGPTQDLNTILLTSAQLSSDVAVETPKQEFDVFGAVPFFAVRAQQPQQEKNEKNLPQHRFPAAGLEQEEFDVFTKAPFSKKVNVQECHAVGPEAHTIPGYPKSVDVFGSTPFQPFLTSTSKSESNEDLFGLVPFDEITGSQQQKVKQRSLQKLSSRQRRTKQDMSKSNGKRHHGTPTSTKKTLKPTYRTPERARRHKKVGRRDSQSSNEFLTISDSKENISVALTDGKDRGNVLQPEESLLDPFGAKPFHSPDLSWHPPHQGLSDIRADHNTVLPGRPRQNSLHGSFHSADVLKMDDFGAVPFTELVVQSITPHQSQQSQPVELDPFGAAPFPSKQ
Activity calls are given as the source filed them.
Measured quantity: Kd

Reference set, count: 2
Mol: FC(F)(F)c1ccc(CNc2ccc(Cc3c[nH]c4ncc(Cl)cc34)cn2)cn1
Kd: > 30 µM (inactive)
--
Mol: CNC(=O)c1cccc(-c2ccc3c(N4CCOC[C@@H]4C)nc(N4CCOC[C@@H]4C)nc3n2)c1
Kd: > 30 µM (inactive)

// below: Kd requested for another compound
Dear colleague, please send me the reported Kd for CC(C)CC(=O)Nc1[nH]nc2c1CN(C(=O)C1CCN(C)CC1)C2(C)C when you can.
> 30 µM (inactive)
